tested on: IL-23 induced STAT3 in HEK-Blue™ IL-23 cells; assay: IL-23 induced STAT3 QUANTI-Blue reporter assay in HEK-Blue IL-23 cells; type: cell-based; details: HEK-Blue IL-23 cells, IL-23 0.1 ng/mL, SEAP levels; class symbols; read-out: IL23 reporter assay (IC50 nM)
property_measured: IC50

Please review the entries below; each comes with its answer.
- compound: "[2H]C([2H])([2H])Nc1cc(Nc2cccn(C3CC4(CCOC4)C3)c2=O)nc2c(C(=O)N[C@@H]3C[C@H]4CCO[C@H]43)cnn12 (single isomer, unassigned) [Compound 97b]"
  assayed_target: "IL-23 induced STAT3 in HEK-Blue™ IL-23 cells"
  IC50: "10 to 100 nM"
- compound: "[2H]C([2H])([2H])Nc1cc(Nc2cccn(C3CC4(CCOC4)C3)c2=O)nn2c(C(=O)N[C@@H]3C[C@@H]3F)cnc12 (single isomer, unassigned) [Compound 102b]"
  assayed_target: "IL-23 induced STAT3 in HEK-Blue™ IL-23 cells"
  IC50: "10 to 100 nM"

Here's the next entry for you.
Please give the measured IC50 for this compound: CNc1cc(Nc2cccn(-c3ccccn3)c2=O)nc2c(C(=O)NC(C)c3ncco3)cnn12 (single isomer, unassigned) [Compound 36b]
10 to 100 nM
